system: MV4-11; assay: Cell proliferation inhibition in AML cell line MV4-11 (Alamar Blue); format: cell-based; settings: Homo sapiens, MV4-11, 72 hours, read-out: Cell proliferation inhibitory activity (GI50) MV4-11
The label true (1) is reserved for GI50 strictly under 20 nM; false (0) covers values equal to or above it.

Examples with answers:
compound="O=C1Nc2ccc(Br)cc2/C1=C1/Nc2ccccc2/C1=N\\OCCN1CCNCC1 [Comparative Example 2, reference compound]" target_or_system=MV4-11 class="true (1)"
compound=O=C1Nc2ccc(F)cc2/C1=C1/Nc2ccccc2/C1=N\OCC(=O)N1CC2(CNC2)C1 target_or_system=MV4-11 class="false (0)"
compound=O=C1Nc2ccccc2/C1=C1/Nc2ccccc2/C1=N\OCCN[C@H]1[C@@H]2CNC[C@@H]21 target_or_system=MV4-11 class="true (1)"
compound=O=C1Nc2ccc(F)cc2/C1=C1/Nc2ccccc2/C1=N\OCCN1C[C@@H]2C[C@H]1CN2 target_or_system=MV4-11 class="true (1)"
compound=N[C@@H]1[C@H]2CN(CCO/N=C3/C(=C4/C(=O)Nc5ccccc54)Nc4ccccc43)C[C@@H]12 target_or_system=MV4-11 class="false (0)"
compound=O=C(CO/N=C1/C(=C2/C(=O)Nc3ccc(F)cc32)Nc2ccccc21)N[C@H]1[C@@H]2CNC[C@@H]21 target_or_system=MV4-11 class="true (1)"
compound=O=C1Nc2ccccc2/C1=C1/Nc2ccccc2/C1=N\OCCN1C[C@@H]2C[C@H]1CN2 target_or_system=MV4-11 class="true (1)"
compound=O=C1Nc2ccc(F)cc2/C1=C1/Nc2ccccc2/C1=N\OCCN1CC2(CNC2)C1 target_or_system=MV4-11 class="true (1)"
compound=O=C1Nc2ccc(F)cc2/C1=C1/Nc2ccccc2/C1=N\OCC(=O)N1C[C@H]2C[C@@H]1CN2 target_or_system=MV4-11 class="true (1)"
compound=O=C1Nc2ccc(F)cc2/C1=C1/Nc2ccccc2/C1=N\OCCN1C[C@H]2C[C@@H]1CN2 target_or_system=MV4-11 class="true (1)"

[ask] Strictly below 20 nM in GI50? N[C@@H]1[C@H]2CN(CCO/N=C3/C(=C4/C(=O)Nc5ccc(F)cc54)Nc4ccccc43)C[C@@H]12
[reply] false (0)

[ask] Strictly below 20 nM in GI50? O=C1Nc2ccccc2/C1=C1/Nc2ccccc2/C1=N\OCC(=O)N1C[C@H]2C[C@@H]1CN2
[reply] true (1)

[ask] Strictly below 20 nM in GI50? O=C1Nc2ccccc2/C1=C1/Nc2ccccc2/C1=N\OCCN1CC2(CNC2)C1
[reply] true (1)

[ask] Strictly below 20 nM in GI50? O=C(CO/N=C1/C(=C2/C(=O)Nc3ccccc32)Nc2ccccc21)N[C@H]1[C@@H]2CNC[C@@H]21
[reply] true (1)

[ask] Strictly below 20 nM in GI50? O=C1Nc2ccccc2/C1=C1/Nc2ccccc2/C1=N\OCC(=O)N1CC2(CNC2)C1
[reply] false (0)

[ask] Strictly below 20 nM in GI50? O=C1Nc2ccc(F)cc2/C1=C1/Nc2ccccc2/C1=N\OCCN1CCNCC1 [Comparative Example 3, reference compound]
[reply] true (1)

[ask] Strictly below 20 nM in GI50? O=C1Nc2ccc(F)cc2/C1=C1/Nc2ccccc2/C1=N\OCCN[C@H]1[C@@H]2CNC[C@@H]21
[reply] true (1)
